Target: Ba/F3-EGFR-WT cells (Homo sapiens)
Sequence (P00533 whole entry, looked up, change not shown): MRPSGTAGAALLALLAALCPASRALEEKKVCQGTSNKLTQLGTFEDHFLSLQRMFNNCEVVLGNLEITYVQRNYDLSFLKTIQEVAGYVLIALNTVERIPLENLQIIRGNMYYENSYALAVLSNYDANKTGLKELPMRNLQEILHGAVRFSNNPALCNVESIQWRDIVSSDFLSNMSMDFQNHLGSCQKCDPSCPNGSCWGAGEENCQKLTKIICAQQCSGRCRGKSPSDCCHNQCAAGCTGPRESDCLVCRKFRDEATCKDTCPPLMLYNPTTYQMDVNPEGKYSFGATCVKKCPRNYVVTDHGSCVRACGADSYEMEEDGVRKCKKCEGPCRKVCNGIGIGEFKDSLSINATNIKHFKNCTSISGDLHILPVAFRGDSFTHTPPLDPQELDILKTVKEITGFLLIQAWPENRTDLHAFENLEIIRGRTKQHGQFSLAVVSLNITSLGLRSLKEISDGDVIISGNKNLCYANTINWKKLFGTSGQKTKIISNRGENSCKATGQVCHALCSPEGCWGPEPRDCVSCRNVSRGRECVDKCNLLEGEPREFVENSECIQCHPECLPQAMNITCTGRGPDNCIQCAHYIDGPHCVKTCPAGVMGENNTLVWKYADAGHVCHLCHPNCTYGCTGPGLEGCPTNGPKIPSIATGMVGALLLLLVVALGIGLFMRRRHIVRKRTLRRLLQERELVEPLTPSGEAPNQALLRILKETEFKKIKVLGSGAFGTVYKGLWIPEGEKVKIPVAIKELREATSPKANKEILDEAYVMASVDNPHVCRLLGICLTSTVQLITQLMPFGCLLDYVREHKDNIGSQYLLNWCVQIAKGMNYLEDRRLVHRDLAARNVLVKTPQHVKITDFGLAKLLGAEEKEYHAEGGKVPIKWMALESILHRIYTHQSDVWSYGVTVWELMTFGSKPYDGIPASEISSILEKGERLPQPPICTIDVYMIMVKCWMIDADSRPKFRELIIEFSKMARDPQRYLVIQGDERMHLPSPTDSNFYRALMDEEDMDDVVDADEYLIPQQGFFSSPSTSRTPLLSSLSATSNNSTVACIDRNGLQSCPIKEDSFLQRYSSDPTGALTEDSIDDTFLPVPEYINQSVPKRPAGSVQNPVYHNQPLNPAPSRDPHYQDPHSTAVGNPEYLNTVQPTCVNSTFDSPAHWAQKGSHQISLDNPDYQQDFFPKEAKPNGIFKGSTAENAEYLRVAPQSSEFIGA
Experiment: Ba/F3 cell survival assay, wild type EGFR
Assay type: cell-based
Settings: Cell Titer-Glo, 48 h, with 10 ng/mL EGF; Table 4; read-out: BA/F3 (wild type) IC50
GI50 values, listed per item
measured.metric: GI50 (nM)

molecule: COc1c(Cl)cccc1Nc1c(-c2ccncc2OCC2COCCO2)[nH]c2c1C(=O)N[C@@H]1CCC[C@H]21 (mixture of isomers) [Example 52]
experimental.target: Ba/F3-EGFR-WT cells (Homo sapiens)
measured.metric: GI50
measurement.unit: nM
measured.result: 407
//
molecule: COc1c(Cl)cccc1Nc1c(-c2ccncc2OCCC2CCCCO2)[nH]c2c1C(=O)N[C@H](C)C2 (stereo partly shown) [Example 86]
experimental.target: Ba/F3-EGFR-WT cells (Homo sapiens)
measured.metric: GI50
measurement.unit: nM
measured.result: 480
//
molecule: CCc1c(Cl)cccc1Nc1c(-c2ccncc2OC[C@@H]2COCCO2)[nH]c2c1C(=O)N[C@H](C)C2 [Example 110]
experimental.target: Ba/F3-EGFR-WT cells (Homo sapiens)
measured.metric: GI50
measurement.unit: nM
measured.result: 780
//
molecule: Cc1c(Cl)cccc1Nc1c(-c2ccncc2OCC2CCCCO2)[nH]c2c1C(=O)NCC2C (single isomer, unassigned) [Example 118]
experimental.target: Ba/F3-EGFR-WT cells (Homo sapiens)
measured.metric: GI50
measurement.unit: nM
measured.result: 938
